SYSTEM_TESTED: recombinant human 5-HT5A receptor (Homo sapiens, UniProt P47898)
Construct: membranes
Sequence (P47898 whole entry): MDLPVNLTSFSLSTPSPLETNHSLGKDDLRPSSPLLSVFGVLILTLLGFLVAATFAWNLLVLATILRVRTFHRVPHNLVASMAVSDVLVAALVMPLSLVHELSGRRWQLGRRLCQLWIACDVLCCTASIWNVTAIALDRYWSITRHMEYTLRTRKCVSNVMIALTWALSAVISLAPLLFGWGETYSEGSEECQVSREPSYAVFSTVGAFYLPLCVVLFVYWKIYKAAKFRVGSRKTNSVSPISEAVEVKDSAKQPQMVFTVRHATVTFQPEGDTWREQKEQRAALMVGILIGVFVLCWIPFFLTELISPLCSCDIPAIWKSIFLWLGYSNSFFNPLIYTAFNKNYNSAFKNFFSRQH
PROTOCOL_NOTES: [3H]LSD radioligand binding assay
CONDITION_DESCRIPTION: [3H]LSD approx. 1 nM; membranes from HEK-EBNA cells transiently expressing 5-HT5A; Ki from IC50 by Cheng-Prussoff
OBSERVATION_TYPE: pKi
In plain terms, pKi is the concentration in mol/L turned into minus its base-10 logarithm.

The compound identified as Cc1ccc(CNc2ccc3c(Nc4ccc(F)c5[nH]ccc45)cccc3n2)o1 [Example 119] registered its pKi at 8.07

The compound identified as COc1ccccc1CNc1ccc2c(NCc3cccc4[nH]ccc34)cccc2n1 [Example 102] registered its pKi at 8.19

The compound identified as Cc1ccc(CNc2ccc3c(CCc4cccc(S(N)(=O)=O)c4)cccc3n2)o1 [Example 34] registered its pKi at 7.91

The compound identified as Cc1cc2cccc(Nc3ccc4c(NCc5cccnc5)cccc4n3)c2o1 [Example 129] registered its pKi at 7.80

The compound identified as COc1ccccc1CNc1ccc2c(CCc3ccccc3)cccc2n1 [Example 4] registered its pKi at 8.02

The compound identified as Cc1ccc(CNc2ccc3c(NCc4cccc(S(N)(=O)=O)c4)cccc3n2)o1 [Example 35] registered its pKi at 7.77

The compound identified as Cc1ccc(CNc2ccc3c(NCc4cccnc4)cccc3n2)o1 [Example 15] registered its pKi at 7.96

The compound identified as Cc1cc2cccc(Nc3ccc4c(NCc5cc(F)cc(F)c5)cccc4n3)c2o1 [Example 132] registered its pKi at 7.82

The compound identified as Cc1cc2cccc(Nc3ccc4c(NCc5cccc6[nH]ccc56)cccc4n3)c2o1 [Example 111] registered its pKi at 7.99

The compound identified as COc1ccccc1CNc1ccc2c(NCc3ccccc3OC)cccc2n1 [Example 6] registered its pKi at 7.99

The compound identified as Cc1ccc(CNc2ccc3c(NCc4c[nH]cn4)cccc3n2)o1 [Example 87] registered its pKi at 7.80
